Molecular target: T1, FLI1 276-375 N329E (UniProt Q01543 276-375, N329E;F362A)
T1 sequence: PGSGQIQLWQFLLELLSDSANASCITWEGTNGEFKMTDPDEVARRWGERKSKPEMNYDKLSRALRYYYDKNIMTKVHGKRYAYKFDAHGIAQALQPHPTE
Test: fluorescence anisotropy
quantity kind: pKd
One number for each entry, as −log10 of the molar value.

So, 1site_weak (dsDNA) DNA 1: TTGAAGGAAGAG DNA 2: CTCTTCCTTCAA ? Its pKd was 6.56
